# assay.method.text: Evaluation of solid stability (storage 2 weeks; total impurity by HPLC, water content, powder X-ray diffraction)
# Assay type: physicochemical
# condition.set: d-2: 40° C., relative humidity 75%, 2 weeks
value.type: total impurity

INSERT INTO measurements (compound, result_value) VALUES
  ('COc1cc2nccc(Oc3ccc(NC(=O)NC4CC4)c(Cl)c3)c2cc1C(N)=O.CS(=O)(=O)O [mesylate (Form C)]', '2.06%'),
  ('COc1cc2nccc(Oc3ccc(NC(=O)NC4CC4)c(Cl)c3)c2cc1C(N)=O.CS(=O)(=O)O [mesylate (Form A)]', '3.90%'),
  ('CC(=O)O.COc1cc2nccc(Oc3ccc(NC(=O)NC4CC4)c(Cl)c3)c2cc1C(N)=O.CS(=O)(=O)O', '0.61%'),
  ('CCS(=O)(=O)O.COc1cc2nccc(Oc3ccc(NC(=O)NC4CC4)c(Cl)c3)c2cc1C(N)=O [esylate (Form β)]', '0.48%');

====

# assay.method.text: Evaluation of solid stability (storage 2 weeks; total impurity by HPLC, water content, powder X-ray diffraction)
# Assay type: physicochemical
# condition.set: b-2: 25° C., light irradiation 1000 lx, shading with aluminum foil, well closed, 2 weeks
Below: a set of entries, each annotated with reported water content.
value.type: water content (%)

INSERT INTO measurements (compound, result_value) VALUES
  ('CC(=O)O.COc1cc2nccc(Oc3ccc(NC(=O)NC4CC4)c(Cl)c3)c2cc1C(N)=O.CS(=O)(=O)O', 3.1),
  ('CCS(=O)(=O)O.COc1cc2nccc(Oc3ccc(NC(=O)NC4CC4)c(Cl)c3)c2cc1C(N)=O [esylate (Form β)]', 2.5),
  ('COc1cc2nccc(Oc3ccc(NC(=O)NC4CC4)c(Cl)c3)c2cc1C(N)=O.CS(=O)(=O)O [mesylate (Form C)]', 0.8),
  ('COc1cc2nccc(Oc3ccc(NC(=O)NC4CC4)c(Cl)c3)c2cc1C(N)=O.CS(=O)(=O)O [mesylate (Form A)]', 0.0);

====

Below: a set of entries, each annotated with reported water content.
# assay.method.text: Evaluation of hygroscopicity (storage 1 week; water content, powder X-ray diffraction)
# Type: physicochemical
# condition.set: b-1: 25° C., relative humidity 93%, 1 week
value.type: water content (%)

INSERT INTO measurements (compound, result_value) VALUES
  ('CC(=O)O.COc1cc2nccc(Oc3ccc(NC(=O)NC4CC4)c(Cl)c3)c2cc1C(N)=O.CS(=O)(=O)O', 0.8),
  ('COc1cc2nccc(Oc3ccc(NC(=O)NC4CC4)c(Cl)c3)c2cc1C(N)=O.CS(=O)(=O)O [mesylate (Form C)]', 0.7),
  ('COc1cc2nccc(Oc3ccc(NC(=O)NC4CC4)c(Cl)c3)c2cc1C(N)=O.CS(=O)(=O)O [mesylate (Form A)]', 0.7),
  ('CCS(=O)(=O)O.COc1cc2nccc(Oc3ccc(NC(=O)NC4CC4)c(Cl)c3)c2cc1C(N)=O [esylate (Form β)]', 1.4);

====

# assay.method.text: Evaluation of solid stability (storage 2 weeks; total impurity by HPLC, water content, powder X-ray diffraction)
# Format: physicochemical
# condition.set: a-2: −20° C. (well closed), 2 weeks
Below: a set of entries, each annotated with reported water content.
value.type: water content (%)

INSERT INTO assay_data (molecule, result_value) VALUES
  ('COc1cc2nccc(Oc3ccc(NC(=O)NC4CC4)c(Cl)c3)c2cc1C(N)=O.CS(=O)(=O)O [mesylate (Form A)]', 0.0),
  ('CC(=O)O.COc1cc2nccc(Oc3ccc(NC(=O)NC4CC4)c(Cl)c3)c2cc1C(N)=O.CS(=O)(=O)O', 3.1),
  ('COc1cc2nccc(Oc3ccc(NC(=O)NC4CC4)c(Cl)c3)c2cc1C(N)=O.CS(=O)(=O)O [mesylate (Form C)]', 0.7),
  ('CCS(=O)(=O)O.COc1cc2nccc(Oc3ccc(NC(=O)NC4CC4)c(Cl)c3)c2cc1C(N)=O [esylate (Form β)]', 2.0);
